measuredOn: Albumin (Homo sapiens, UniProt P02768)
Sequence (P02768 whole entry): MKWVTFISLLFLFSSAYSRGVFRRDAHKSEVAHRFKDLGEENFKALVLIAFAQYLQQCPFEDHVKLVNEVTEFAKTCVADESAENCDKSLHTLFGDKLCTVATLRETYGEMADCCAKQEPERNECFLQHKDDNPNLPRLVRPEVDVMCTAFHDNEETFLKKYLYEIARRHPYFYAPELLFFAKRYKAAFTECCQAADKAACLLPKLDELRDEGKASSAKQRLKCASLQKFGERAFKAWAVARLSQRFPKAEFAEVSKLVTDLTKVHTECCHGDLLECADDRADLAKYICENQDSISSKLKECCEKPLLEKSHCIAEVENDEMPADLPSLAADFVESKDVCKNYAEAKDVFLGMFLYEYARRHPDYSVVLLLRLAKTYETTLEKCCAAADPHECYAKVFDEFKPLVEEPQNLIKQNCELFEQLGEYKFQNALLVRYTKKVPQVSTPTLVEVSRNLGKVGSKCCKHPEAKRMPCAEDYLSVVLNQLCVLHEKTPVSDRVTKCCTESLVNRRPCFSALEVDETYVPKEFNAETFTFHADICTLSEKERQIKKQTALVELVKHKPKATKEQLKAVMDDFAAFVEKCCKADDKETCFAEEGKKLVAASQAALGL
testSummary: Inhibition of Albumin (unknown origin) denaturation at 100 uM relative to control
Can you tell me inhibition at 100 µM for the items I'm about to list?
Give bare numbers, in %.

Would you please look over these solved cases?
>>> observedmeasurement("Cc1ccc(-c2cn3cccnc3n2)cc1")
82.9
>>> observedmeasurement("c1ccc(-c2ccc(-c3cn4cccnc4n3)cc2)cc1")
96.4
>>> observedmeasurement("O=C(O)c1ccccc1Nc1c(Cl)cccc1Cl")
84.7
>>> observedmeasurement("Clc1ccc(-c2cn3cccnc3n2)cc1")
41.7

Please give inhibition at 100 µM for each item listed below.
1. CCOC(=O)c1ccc(-c2cn3cccnc3n2)cc1
2. COc1ccc(-c2cn3cccnc3n2)cc1

Solution:
1. 54.2
2. 40.9

* * *

Can you tell me pIC50 for the items I'm about to list?
measuredOn: cAMP and cAMP-inhibited cGMP 3',5'-cyclic phosphodiesterase 10A (Homo sapiens, UniProt Q9Y233)
Sequence (Q9Y233 whole entry): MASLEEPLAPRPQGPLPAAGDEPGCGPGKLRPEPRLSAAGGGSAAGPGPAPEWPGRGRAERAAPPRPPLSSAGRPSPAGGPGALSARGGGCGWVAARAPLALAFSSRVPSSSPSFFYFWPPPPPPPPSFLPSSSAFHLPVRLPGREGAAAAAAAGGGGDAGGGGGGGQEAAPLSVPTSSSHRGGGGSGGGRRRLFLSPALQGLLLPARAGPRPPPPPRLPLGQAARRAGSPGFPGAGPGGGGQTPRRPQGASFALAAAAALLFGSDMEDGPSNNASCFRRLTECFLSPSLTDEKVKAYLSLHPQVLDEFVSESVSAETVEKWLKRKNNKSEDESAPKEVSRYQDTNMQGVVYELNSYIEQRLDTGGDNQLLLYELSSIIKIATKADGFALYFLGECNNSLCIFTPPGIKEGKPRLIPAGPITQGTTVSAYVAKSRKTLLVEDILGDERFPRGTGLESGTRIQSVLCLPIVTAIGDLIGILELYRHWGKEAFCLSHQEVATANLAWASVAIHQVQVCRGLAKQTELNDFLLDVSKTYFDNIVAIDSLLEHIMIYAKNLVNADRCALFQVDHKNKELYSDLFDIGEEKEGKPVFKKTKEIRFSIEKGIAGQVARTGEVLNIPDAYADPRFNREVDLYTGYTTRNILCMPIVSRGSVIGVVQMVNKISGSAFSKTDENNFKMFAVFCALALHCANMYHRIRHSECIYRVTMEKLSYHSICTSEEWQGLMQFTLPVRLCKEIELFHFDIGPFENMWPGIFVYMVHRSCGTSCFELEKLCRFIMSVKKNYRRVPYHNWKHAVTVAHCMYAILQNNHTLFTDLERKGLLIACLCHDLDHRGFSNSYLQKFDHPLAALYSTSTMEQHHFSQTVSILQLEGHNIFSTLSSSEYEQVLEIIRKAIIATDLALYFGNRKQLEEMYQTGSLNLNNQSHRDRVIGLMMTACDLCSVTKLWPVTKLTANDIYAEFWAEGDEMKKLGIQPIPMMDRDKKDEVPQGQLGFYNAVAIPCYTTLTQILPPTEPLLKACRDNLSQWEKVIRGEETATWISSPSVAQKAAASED
Answers are plain numbers, as −log10 of the molar value.

Consider the reported pIC50 for these molecules:
>>> observedmeasurement("Cc1c(C(=O)N2CCC2)cnn1CC(=O)Nc1ccn2cc(-c3ccccc3)nc2n1")
8.40
>>> observedmeasurement("Cc1c(C(=O)N2CCCC2)cnn1C(=O)Nc1ccn2cc(-c3ccccc3)nc2n1")
8.52

For each of the items listed, what is its pIC50?
1. Cc1c(C(=O)N2CCC2)cnn1C(=O)Nc1ccn2cc(-c3ccc(Cl)s3)nc2n1
2. Cc1c(C(=O)NCc2cocn2)cnn1C(=O)Nc1ccn2cc(-c3ccccc3)nc2n1
3. Cc1c(C(=O)N2CC=CC2)cnn1C(=O)Nc1ccn2cc(-c3ccccc3)nc2n1
4. Cc1c(C(=O)N2CCC2)cnn1C(=O)Nc1ccn2cc(-c3ccccc3)nc2n1
5. Cc1c(C(=O)NCc2c[nH]cn2)cnn1C(=O)Nc1ccn2cc(-c3ccccc3)nc2n1

Solution:
[8.40, 9.00, 8.05, 8.52, 8.70]

* * *

Assignment: determine reported log10(IC50) for the given molecules.
measuredOn: Pyruvate kinase PKM (Homo sapiens, UniProt P14618)
Sequence (P14618 whole entry): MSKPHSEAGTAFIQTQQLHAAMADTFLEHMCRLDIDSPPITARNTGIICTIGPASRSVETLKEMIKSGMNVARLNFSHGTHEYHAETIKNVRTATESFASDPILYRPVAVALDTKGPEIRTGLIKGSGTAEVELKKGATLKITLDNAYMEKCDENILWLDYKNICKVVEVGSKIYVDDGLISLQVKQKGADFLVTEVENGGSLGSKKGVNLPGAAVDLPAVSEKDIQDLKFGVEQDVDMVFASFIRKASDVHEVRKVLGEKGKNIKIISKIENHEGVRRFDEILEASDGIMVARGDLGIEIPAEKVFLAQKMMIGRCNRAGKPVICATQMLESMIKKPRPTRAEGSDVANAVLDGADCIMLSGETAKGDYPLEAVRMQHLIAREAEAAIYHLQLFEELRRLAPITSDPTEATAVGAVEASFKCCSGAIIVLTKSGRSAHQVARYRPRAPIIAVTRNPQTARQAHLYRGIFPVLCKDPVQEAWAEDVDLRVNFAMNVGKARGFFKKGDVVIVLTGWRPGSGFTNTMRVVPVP
testSummary: Inhibition of recombinant PKM2 (unknown origin)
Could you please treat all values as log10 of IC50 in µM?

Previously resolved entries follow.
>>> observedmeasurement("O=C(CN1CCN(C(=O)c2ccc(Cl)cc2)CC1)c1cnc2ncccn12")
0.27
>>> observedmeasurement("O=C(CN1CCN(c2ccccc2)CC1)c1cnc2ncccn12")
-1.30

Quick request: log10(IC50) for each listed item, please.
1. O=C(CN1CCN(c2ncccn2)CC1)c1cnc2ncccn12
2. COc1ccc(C(=O)N2CCN(CC(=O)c3cnc4ncccn34)CC2)cc1
3. CC(=O)c1ccc(C(=O)N2CCN(CC(=O)c3cnc4ncccn34)CC2)cc1
4. Cc1ccc(N2CCN(CC(=O)c3cnc4ncccn34)CC2)cc1

Solution:
1. -0.35
2. -0.50
3. -0.14
4. -1.22

* * *

Tested on: Candida tropicalis
testSummary: Antifungal activity against Candida tropicalis MYA-3404 assessed as reduction in fungal growth incubated for 24 hrs by CLSI based assay
Assay type: functional
For each entry below, report its MIC value.
Provide the measurement as a number trailed by its unit.

>>> observedmeasurement("N#Cc1ccc(C(=O)c2cnc3ncccn23)cc1")
"0.062 µg/mL"
>>> observedmeasurement("O=C(c1ccc(F)cc1)c1cnc2ncccn12")
"0.25 µg/mL"
>>> observedmeasurement("Cc1ccc(C(=O)c2cnc3ncccn23)cc1")
"0.25 µg/mL"
>>> observedmeasurement("CC(=O)N1CCN(c2ccc(OCC3COC(Cn4ccnc4)(c4ccc(Cl)cc4Cl)O3)cc2)CC1 (configuration not stated)")
"2 µg/mL"
>>> observedmeasurement("O=C(c1ccc(Cl)cc1)c1cnc2ncccn12")
"0.031 µg/mL"
>>> observedmeasurement("OC(Cn1cncn1)(Cn1cncn1)c1ccc(F)cc1F")
"1 µg/mL"

From here, focus on the item given below.
Problem: Would you mind telling me what MIC value was observed for O=C(c1ccccc1)c1cnc2ncccn12 ?
Solution: 0.5 µg/mL

Hey, just so you know, these numbers are from ChEMBL document CHEMBL5532697.
